- Read-out: Pyruvate Dehydrogenase Kinase 4 (PDK4), PDK4 (gene 5166)
- Protocol Description: LTEA_HepaRG_PDK4: Life Technologies and Expression Analysis (LTEA) Assay for Pyruvate Dehydrogenase Kinase 4 (PDK4) using HepaRG (AID 2283525)
- Experimental Conditions: mRNA level, 48 h; actives raise or lower the signal
Calls of active or inactive are those of the source. Rule for the calls: active = hit-call score of the fitted dose curve at least 0.9, where 1 is the maximum; inactive = score below 0.9.
Property Measured: outcome

COC(=O)c1ccc(C(=O)OC)cc1 = inactive
CCCCOCCOCCO = inactive
C=C(C)C(N)=O = inactive
C[C@]12CC[C@@H]3c4ccc(O)cc4CC[C@H]3[C@@H]1CC[C@@H]2O = inactive

----------
- Tgt: chimpanzee Androgen Receptor (AR), AR (gene 747460)
- Protocol Description: NVS_NR_cAR: NovaScreen (NVS) Nuclear Receptor Binding Assay for chimpanzee Androgen Receptor (AR) (AID 2283346);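 note: radioligand displacement from AR measured by scintillation counting in a cell-free assay; a loss of bound radioligand signal versus DMSO counts as binding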
Results filed as inconclusive are left out. The source made the active and inactive calls. How the source made its calls: active means hit-call score of the fitted dose curve at least 0.9, where 1 is the maximum; inconclusive means response in the unintended direction; inactive means score below 0.9.
Property Measured: AC50

As a guide, the following entries are already answered.
CCCCCC(=O)O[C@]1(C(C)=O)CC[C@H]2[C@@H]3CCC4=CC(=O)CC[C@]4(C)[C@H]3CC[C@@]21C = 1.12 µM (active)
CCCCCC1C(=O)CCC1CC(=O)OC (centres undefined) = 17.7 µM (active)
O=c1cc(-c2ccc(O)cc2)oc2cc(O)cc(O)c12 = 12.9 µM (active)
OC[C@@H](O)[C@H](O)[C@@H](O)[C@@H](O)CO = inactive

Please state, for each entry, its recorded AC50.
1. [O-]/[N+](=N\O)c1ccccc1
2. CC1(C)CC(=O)CC(C)(C)N1
3. CC(C)CCCC(C)(C)O
4. N#CCCCC(C#N)CCC#N (centres undefined)
5. CC(=O)CC(=O)N(C)C

inactive
inactive
inactive
inactive
inactive

----------
- Protocol Description: CCTE_Shafer_MEA_dev_bursting_electrodes_number: CCTE's Neural Network Formation Assay for Number of Bursting Electrodes, Shafer Lab (AID 2284043);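 for AC50: potency is for loss of bursting electrodes relative to DMSO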
Results filed as inconclusive are left out. Activity calls are given as the source filed them. How the source made its calls: active means hit-call score of the fitted dose curve at least 0.9, where 1 is the maximum; inconclusive means response in the unintended direction; inactive means score below 0.9.
Property Measured: AC50

N#CCCNCCC#N = inactive
CC(C)Cc1ccc(C(C)C(=O)O)cc1 (centres undefined) = 2.98 µM (active)
CCCCC(CC)COC(=O)COc1ccc(Cl)cc1C (centres undefined) = inactive
C[C@]12CC[C@@H]3c4ccc(O)cc4CC[C@H]3[C@@H]1CC[C@@H]2O = 10 µM (active)

----------
- Protocol Description: ATG_PXRE_CIS: Attagene CIS-FACTORIAL HepG2 Assay for human Pregnane X Receptor Element (PXRE) (AID 2282957)
- Experimental Conditions: HepG2 Attagene CIS-FACTORIAL PXRE reporter, mRNA; actives raise or lower the signal
Calls of active or inactive are those of the source. The calls were made as follows: active = hit-call score of the fitted dose curve at least 0.9, where 1 is the maximum; inactive = score below 0.9.
// classify into True = active, False = inactive

Could you please tell me the result logged for CN(C)C(=O)Nc1ccccc1 in this assay? True

Could you please tell me the result logged for CC1COC(=O)O1 (stereo not drawn) in this assay? True

Could you please tell me the result logged for CC(C)(CO)CO in this assay? False

----------
- Read-out: Basic fibroblast growth factor (bFGF), FGF2 (gene 2247)
- Protocol Description: BSK_MyoF_bFGF: BioMAP Diversity Plus: MyoF Assay for Basic fibroblast growth factor (bFGF) Biomarker Activity (AID 2284246)
- Experimental Conditions: primary human lung fibroblasts
Active and inactive are the calls of the source. The calls were made as follows: active = hit-call score of the fitted dose curve at least 0.9, where 1 is the maximum; inactive = score below 0.9.
// classify into TRUE (active), FALSE (inactive)

CC(=O)OCC=C(C)CCC=C(C)CCC=C(C)C = FALSE
c1ccc2c(c1)-c1ccc3ccc4cccc5cc-2c1c3c45 = FALSE
c1ccc(Sc2ccccc2)cc1 = TRUE
C=C(C)C(=O)OCCC(F)(F)C(F)(F)C(F)(F)C(F)(F)C(F)(F)C(F)(F)C(F)(F)C(F)(F)F = FALSE
CCCCCCCCCCCCS = TRUE

Could you please tell me the result logged for C=CC(=O)OCC(CO)(COC(=O)C=C)COC(=O)C=C in this assay? TRUE

Could you please tell me the result logged for O=C1OC2(c3ccc(O)cc3Oc3cc(O)ccc32)c2ccccc21 in this assay? FALSE

Could you please tell me the result logged for CC(=O)OC(C)(C)C1CC=C(C)CC1 (stereo not given) in this assay? FALSE

Could you please tell me the result logged for O=C(O)C(F)(F)C(F)(F)C(F)(F)C(F)(F)C(F)(F)C(F)(F)C(F)(F)C(F)F in this assay? FALSE

----------
- Tgt: X-box-binding protein 1 (Homo sapiens)
- Protocol Description: ATG_Xbp1_CIS: Attagene CIS-FACTORIAL HepG2 Assay for human X-box Binding Protein 1 (XBP1) (AID 2282972)
- Experimental Conditions: HepG2 XBP1 cis-element reporter, Attagene multiplex; actives raise or lower the signal
Active and inactive are the calls of the source. The calls were made as follows: active = hit-call score of the fitted dose curve at least 0.9, where 1 is the maximum; inactive = score below 0.9.
Property Measured: AC50

C1=COCCC1 = inactive
Cc1cc(O)c2c(c1)C(=O)c1cc(O)cc(O)c1C2=O = 9.89 µM (active)
CC(C)N1C(=O)c2ccccc2C1=O = inactive
CCC(C)C1CCCCC1=O (configuration not stated) = inactive
COc1ccc(N)c(C)c1 = inactive
CC1=CCC(C(C)C)=CC1 = inactive
CCc1cccc(O)c1 = inactive
CCCCCCCCOC(C)=O = inactive
CCCCOCC(C)OCC(C)O (configuration not stated) = inactive
C=C(C)C(=O)OCCN(C)C = inactive

Please state, for each entry, its recorded AC50.
1. CN(C)c1ccc(C=O)cc1
2. CCCCCCCCCCCCN1CCOCC1
3. c1ccc(Cc2ccccc2)cc1
4. CC1COC(=O)O1 (configuration not stated)

1. inactive
2. 46.9 µM (active)
3. inactive
4. 0.0103 µM (active)

----------
- Protocol Description: ATG_VDRE_CIS: Attagene CIS-FACTORIAL HepG2 Assay for human Vitamin D Receptor Element (VDRE) (AID 2282968)
- Experimental Conditions: HepG2 VDRE cis-reporter transcription, actives raise or lower the signal
- Protocol: ATG_CIS is a cell-based, multiplexed-readout assay that uses HepG2, a human liver cell line, with measurements taken at 24 hours after chemical dosing in a 24-well plate.ATG_VDRE_CIS is one of 52 assay component(s) measured or calculated from the ATG_CIS assay. […] This assay endpoint, ATG_VDRE_CIS, was analyzed with bidirectional fitting relative to DMSO as the negative control and baseline of activity. […]
Active and inactive are the calls of the source. How the source made its calls: active means hit-call score of the fitted dose curve at least 0.9, where 1 is the maximum; inactive means score below 0.9.
// classify into active, inactive

A selection of reference data follows.
CCCCCCCCCCCCS = active
CC(C)CCCC(C)(C)O = inactive
[O-]/[N+](=N\O)c1ccccc1 = inactive

Could you please tell me the result logged for CCCCCCCC(=O)N(C)C in this assay? inactive

Could you please tell me the result logged for CN(C)C(=O)Nc1ccccc1 in this assay? inactive

Could you please tell me the result logged for OCC=Cc1ccccc1 in this assay? inactive

Could you please tell me the result logged for CCCCCC1CCC(=O)O1 (centres undefined) in this assay? inactive

Could you please tell me the result logged for CCC(=O)OCC=Cc1ccccc1 in this assay? inactive

Could you please tell me the result logged for CC(=O)CCC=C(C)CCC=C(C)C in this assay? active

----------
- Read-out: Cyclin D1 (CCND1), CCND1 (gene 595)
- Protocol Description: LTEA_HepaRG_CCND1: Life Technologies and Expression Analysis (LTEA) Assay for Cyclin D1 (CCND1) using HepaRG (AID 2283451)
- Experimental Conditions: mRNA level, 48 h; actives raise or lower the signal
- Method: LTEA_HepaRG is a cell based, multiplexed-readout assay that uses HepaRG, a human liver cell line, with measurements taken at 48 hours after chemical dosing on a 96-well plate.LTEA_HepaRG_CCND1 is one of 102 assay component(s) measured in the LTEA HepaRG cell culture assay. It is a marker of Cell proliferation, survival, death.Data from the assay component LTEA_HepaRG_CCND1 was analyzed into 1 endpoint. […]
Active and inactive are the calls of the source. How the source made its calls: active means hit-call score of the fitted dose curve at least 0.9, where 1 is the maximum; inactive means score below 0.9.
// classify into active, inactive

C=C(C)C(N)=O = inactive
C[C@]12CC[C@@H]3c4ccc(O)cc4CC[C@H]3[C@@H]1CC[C@@H]2O = inactive
COC(=O)c1ccc(C(=O)OC)cc1 = inactive
O=C(c1ccc(OCCN2CCCCC2)cc1)c1c(-c2ccc(O)cc2)sc2cc(O)ccc12 = active

Could you please tell me the result logged for C#C[C@]1(O)CC[C@H]2[C@@H]3CCc4cc(O)ccc4[C@H]3CC[C@@]21C in this assay? inactive

----------
Would you kindly list AC50 for each of these molecules?
- Protocol Description: BSK_hDFCGF_Proliferation: Cell Proliferation Assessment in the BioMAP Diversity Plus: hDFCGF Assay (AID 2283059);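 note: curves fitted for both rise and fall of signal versus DMSO baseline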
- Experimental Conditions: primary human foreskin fibroblasts
Activity calls are given as the source filed them. Rule for the calls: active = hit-call score of the fitted dose curve at least 0.9, where 1 is the maximum; inactive = score below 0.9.

CCCCCCCCCC(=O)OCC = 13.7 µM (active)

Consider now this further molecule.
Please give the documented AC50 of O=C1OC2(c3ccc(O)cc3Oc3cc(O)ccc32)c2ccccc21 20 µM (active)
